Where these numbers come from: ChEMBL document CHEMBL4346672

# Test system: Klebsiella pneumoniae ATCC BAA-1705
# EXPERIMENT: Inhibition of beta lactamase KPC-2 in Klebsiella pneumoniae ATCC BAA 1705 assessed as potentiation of meropenem-induced antibacterial activity by measuring meropenem MIC at 16 mg/L incubated for 18 hrs by broth dilution method (reference value: […] mg/L)
Each entry below carries its recorded MIC.
Give the quantity in µg/mL, number only.

                           molecule_smiles  observed_value
0            C[Si]1(C)OB(O)c2ccc(F)c(F)c21              64
1           C[Si]1(C)OB(O)c2ccc(B(O)O)cc21              32
2  C[Si]1(C)OB(O)c2c(F)c3c(c(F)c21)B(O)OC3              64
3       C[Si]1(C)OB(O)c2cc3c(c(F)c21)COB3O              64
4                            OB(O)c1ccccc1              16

Please give measured MIC of the following entry: C[Si]1(C)OB(O)c2c(F)c(F)c(F)c(F)c21
64

* * *

# EXPERIMENT: Cytotoxicity against human MRC5 cells assessed as cell viability at 4 ug/ml incubated for 72 hrs by MTT assay
# Format: cell-based
# COND: read-out: Activity
ATTRIBUTE MEASURED: viability at 72 h, 4 ug/ml (%)
Give the quantity in %, number only.

Worked cases, viability at 72 h, 4 ug/ml given:
>>> print(df.to_string())
                      molecule_smiles  units  observed_value
0      C[Si]1(C)OB(O)c2ccc(B(O)O)cc21      %             129
1  C[Si]1(C)OB(O)c2cc3c(c(F)c21)COB3O      %             108

# evaluate next
Please give measured viability at 72 h, 4 ug/ml of the following entry: C[Si]1(C)OB(O)c2ccc(F)c(F)c21
111

* * *

# System: Proteus mirabilis
# EXPERIMENT: Antibacterial activity against Proteus mirabilis ATCC 12453 assessed as fold reduction of MIC in presence of efflux pump inhibitor PAbetaN incubated for 18 hrs by broth microdilution method
# Type: functional
ATTRIBUTE MEASURED: fold change (FC)
Number only, please.

Worked cases, fold change (FC) given:
                      molecule_smiles      tested_system  observed_value
0   C[Si]1(C)OB(O)c2cc(F)c(CO)c(F)c21  Proteus mirabilis               4
1     C[Si]1(C)OB(O)c2ccc(C=O)c(F)c21  Proteus mirabilis               4
2  C[Si]1(C)OB(O)c2cc3c(c(F)c21)COB3O  Proteus mirabilis               8
3             C[Si]1(C)OB(O)c2ccccc21  Proteus mirabilis               0
4          C[Si]1(C)OB(O)c2ccc(F)cc21  Proteus mirabilis               2
5   C[Si]1(C)OB(O)c2ccc(C(F)(F)F)cc21  Proteus mirabilis               2

Please give measured fold change (FC) of the following entry: C[Si]1(C)OB(O)c2ccc(B(O)O)cc21
4

* * *

Each entry below carries its recorded MIC.
# Test system: Pseudomonas aeruginosa
# EXPERIMENT: Inhibition of beta lactamase AmpC in Pseudomonas aeruginosa 700 assessed as potentiation of ceftazidime-induced antibacterial activity by measuring ceftazidime MIC at 16 mg/L incubated for 18 hrs by broth dilution method (reference value: >[…] mg/L)

Worked cases, MIC given:
>>> df
                           molecule_smiles  observed_value
0            C[Si]1(C)OB(O)c2ccc(F)c(F)c21      > 64 µg/mL
1  C[Si]1(C)OB(O)c2c(F)c3c(c(F)c21)B(O)OC3      > 64 µg/mL
2       C[Si]1(C)OB(O)c2cc3c(c(F)c21)COB3O      > 64 µg/mL

Please give measured MIC of the following entry: C[Si]1(C)OB(O)c2c(F)c(F)c(F)c(F)c21
> 64 µg/mL

Please give measured MIC of the following entry: OB(O)c1ccccc1
8 µg/mL

Please give measured MIC of the following entry: C[Si]1(C)OB(O)c2ccc(B(O)O)cc21
32 µg/mL

* * *

# Tested on: Bordetella bronchiseptica
# EXPERIMENT: Antibacterial activity against Bordetella bronchiseptica ATCC 4617 measured after 18 hrs by CLSI broth dilution method
# Assay type: functional
# COND: ATCC 4617, 18 h
ATTRIBUTE MEASURED: MIC (µg/mL)
Give the quantity in µg/mL, number only.

Worked cases, MIC given:
                            molecule_smiles  observed_value
0   C[Si]1(C)OB(O)c2c(F)c3c(c(F)c21)B(O)OC3             100
1  O=C1CN(/N=C/c2ccc([N+](=O)[O-])o2)C(=O)N1              64
2               C[Si]1(C)OB(O)c2ccc(Cl)cc21             400
3        C[Si]1(C)OB(O)c2c(C=O)cc(F)c(F)c21             400
4                C[Si]1(C)OB(O)c2cccc(F)c21             200

# evaluate next
Please give measured MIC of the following entry: C[Si]1(C)OB(O)c2ccc(C(F)(F)F)cc21
400

* * *

Each entry below carries its recorded fold change (FC).
# Test system: Serratia marcescens
# EXPERIMENT: Antibacterial activity against Serratia marcescens ATCC 13880 assessed as fold reduction of MIC in presence of efflux pump inhibitor PAbetaN incubated for 18 hrs by broth microdilution method
# Assay type: functional
Number only, please.

Worked cases, fold change (FC) given:
In [3]: df
Out[3]:
                      molecule_smiles        tested_system  attribute_measured  observed_value
0          C[Si]1(C)OB(O)c2ccc(F)cc21  Serratia marcescens    fold change (FC)               8
1  C[Si]1(C)OB(O)c2cc(F)c(C=O)c(F)c21  Serratia marcescens    fold change (FC)               4
2         C[Si]1(C)OB(O)c2ccc(Cl)cc21  Serratia marcescens    fold change (FC)              16

Please give measured fold change (FC) of the following entry: C[Si]1(C)OB(O)c2ccc(C=O)c(F)c21
16

Please give measured fold change (FC) of the following entry: C[Si]1(C)OB(O)c2cccc(B(O)O)c21
2

Please give measured fold change (FC) of the following entry: C[Si]1(C)OB(O)c2cc(F)c(F)cc21
4

Please give measured fold change (FC) of the following entry: C[Si]1(C)OB(O)c2c(F)c(F)c(F)c(F)c21
4

Please give measured fold change (FC) of the following entry: C[Si]1(C)OB(O)c2ccc(C(F)(F)F)cc21
2

Please give measured fold change (FC) of the following entry: C[Si]1(C)OB(O)c2ccc(Cl)c(Cl)c21
32

Please give measured fold change (FC) of the following entry: C[Si]1(C)OB(O)c2ccc(F)c(F)c21
8

Please give measured fold change (FC) of the following entry: C[Si]1(C)OB(O)c2cc(C=O)cc(F)c21
8

Please give measured fold change (FC) of the following entry: C[Si]1(C)OB(O)c2cc3c(c(F)c21)COB3O
16

Please give measured fold change (FC) of the following entry: C[Si]1(C)OB(O)c2cccc(F)c21
4

Please give measured fold change (FC) of the following entry: C[Si]1(C)OB(O)c2cc(F)c(CO)c(F)c21
4

Please give measured fold change (FC) of the following entry: C[Si]1(C)OB(O)c2c(F)c3c(c(F)c21)B(O)OC3
16

* * *

# EXPERIMENT: Cytotoxicity against human MRC5 cells assessed as cell viability at 0.5 ug/ml incubated for 72 hrs by MTT assay
# Format: cell-based
# COND: read-out: Activity
ATTRIBUTE MEASURED: viability at 72 h, 0.5 ug/ml
Number first, unit second.

Worked cases, viability at 72 h, 0.5 ug/ml given:
                      molecule_smiles  observed_value
0  C[Si]1(C)OB(O)c2cc3c(c(F)c21)COB3O            112%
1       C[Si]1(C)OB(O)c2ccc(F)c(F)c21            108%

# evaluate next
Please give measured viability at 72 h, 0.5 ug/ml of the following entry: C[Si]1(C)OB(O)c2ccc(B(O)O)cc21
112%

* * *

Each entry below carries its recorded viability at 72 h, 2 ug/ml.
# EXPERIMENT: Cytotoxicity against human MRC5 cells assessed as cell viability at 2 ug/ml incubated for 72 hrs by MTT assay
# Assay type: cell-based
# COND: read-out: Activity
Give the quantity in %, number only.

>>> print(df.to_string())
                 molecule_smiles  observed_value
0  C[Si]1(C)OB(O)c2ccc(F)c(F)c21             113

Please give measured viability at 72 h, 2 ug/ml of the following entry: C[Si]1(C)OB(O)c2cc3c(c(F)c21)COB3O
116

Please give measured viability at 72 h, 2 ug/ml of the following entry: C[Si]1(C)OB(O)c2ccc(B(O)O)cc21
124
